Value source: paper PMC5540273

For each entry below, report its %Inh value.
- Tested on: SGK3;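 also: KINOMEscan kinase panel screen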
- assay.context: concentration: 1 μM,replicates: in singlicate; n = 1
Write the number in % without appending the unit.

Quick one: %Inh of C[C@H]1Oc2cc(cnc2N)-c2c(nn(C)c2C#N)CN(C)C(=O)c2ccc(F)cc21 ?
0

Quick one: %Inh of Cl.Cl.NC[C@H](Cc1ccc(C(F)(F)F)cc1)NC(=O)c1cc(Br)c(-c2ccnc3[nH]ccc23)s1 [GSK1487252] ?
82

Quick one: %Inh of Cc1ccc2c(-c3ccncc3)c(-c3ccc(F)cc3)nn2c1.Cl [GW461484] ?
4

Quick one: %Inh of O=C(NCCNc1ccnc(NCc2ccc(F)cc2)n1)c1cc2ccccc2s1 [GSK1379944] ?
34

Quick one: %Inh of Cc1cc(C(=O)Nc2ccc(Oc3ccc4nc(NC(=O)C5CC5)cn4n3)cc2)nn1-c1ccccc1 ?
0

Quick one: %Inh of C[C@@H]1CCN(C(=O)CC#N)C[C@@H]1N(C)c1ncnc2[nH]ccc12 ?
5

Quick one: %Inh of Cl.Oc1cc(-c2nc(-c3ccccc3)[nH]c2-c2ccncc2)ccc1Cl [SB-386023] ?
13

Quick one: %Inh of Cl.Cl.NC[C@H](CC1CCCCC1)NC(=O)c1cc(Br)c(-c2ccnc3[nH]ccc23)s1 [GSK1581427] ?
72
